Source: patent US20260062412A1

target: UniProt Q99640; assay: Test for binding to ATP binding site of MYT1 (Kinase Tracer 178 / Eu-Anti-GST antibody TR-FRET); conditions: ATP binding site of MYT1, 30 minutes at room temperature
Sequence (Q99640 whole entry): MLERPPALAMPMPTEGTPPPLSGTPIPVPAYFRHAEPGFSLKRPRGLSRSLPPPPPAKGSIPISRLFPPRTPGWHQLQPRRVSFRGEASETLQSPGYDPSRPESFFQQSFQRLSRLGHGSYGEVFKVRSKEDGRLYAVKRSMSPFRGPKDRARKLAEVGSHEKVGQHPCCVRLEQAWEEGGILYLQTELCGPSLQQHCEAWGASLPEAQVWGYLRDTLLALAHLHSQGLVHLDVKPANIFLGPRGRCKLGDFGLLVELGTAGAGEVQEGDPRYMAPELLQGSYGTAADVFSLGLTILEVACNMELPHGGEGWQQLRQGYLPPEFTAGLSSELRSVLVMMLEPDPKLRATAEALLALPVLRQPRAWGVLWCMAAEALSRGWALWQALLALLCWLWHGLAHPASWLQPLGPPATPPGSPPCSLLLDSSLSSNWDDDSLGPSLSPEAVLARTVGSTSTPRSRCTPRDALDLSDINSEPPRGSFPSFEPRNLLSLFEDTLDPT
pIC50: −log10 of the molar value.
assay_metric: pIC50

Nc1c(-c2ccc(F)c3[nH]ncc23)c2cnc3ccccc3c2[nH]c1=O | 8.47
Nc1c(-c2ccc(F)c3[nH]ncc23)c2cc(Br)c3cncnc3c2[nH]c1=O | 8.14
C=Cc1cc2c(-c3ccc(F)c4[nH]ncc34)c(N)c(=O)[nH]c2c2ccccc12 | 7.82
Cc1cc2c(-c3cccc(O)c3)c(N)c(=O)[nH]c2c2ccccc12 | 8.15
Nc1c(-c2ccc(F)c3[nH]ncc23)c2cc(OC3CC(C(F)(F)F)C3)c3ncccc3c2[nH]c1=O (centres unmarked) | 8.60

a. Nc1c(-c2cccc(O)c2)c2cc(-c3ccccc3)c3ccccc3c2[nH]c1=O
b. Nc1c(-c2ccc(F)c3[nH]ncc23)c2cc(C3CCNCC3)c3cccnc3c2[nH]c1=O
c. CN1CCN(c2cc3c(-c4ccc(F)c5[nH]ncc45)c(N)c(=O)[nH]c3c3cccnc23)CC1
List the 3 entries from lowest pIC50 to highest pIC50 value. Hello, could you send the labels back in the order asked? Thank you. a, b, c
(a: 6.38, b: 8.42, c: 8.70)
